# experimental-details: NCI Yeast Anticancer Drug Screen. Data for the rad50 strain (AID 155);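 also: 0% = growth of vehicle-only cultures of the same strain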
# applied-conditions: S. cerevisiae rad50 strain growth inhibition; at 50.0 µM unless noted
# Experimental: Growth inhibition of yeast strains with defined genetic alterations is measured as a screen for potential anti-cancer activity. Selected strains with alterations in DNA damage repair or cell cycle control were exposed to compounds and growth inhibition was measured relative to vehicle treated controls. The strain used in this assay is rad50
About 79,000 compounds went through this panel and 15% of them were active in at least one assay; those are over-represented in the sample as a whole. The source made the active and inactive calls. Rule as the data show it: active = growth inhibition above about 70%; inactive = the rest.
Your reply should match one of these outcome classes. 1 (yes) for active, 0 (no) for inactive

Field: example entries. Status: answers known.
CC(NCCN1CCOCC1)c1ccc2ccccc2c1 (stereo not given) :: 0 (no)
COc1ccc(-c2oc3c(CC(=O)O)cccc3c(=O)c2OC)cc1 :: 0 (no)
C/C(=N\NC(=O)Nc1ccc(N=Nc2ccccc2)cc1)c1ccncc1 :: 0 (no)

Recorded call for N#CSC(C(=O)c1ccccc1)c1ccccc1 (stereo not given) ?
1 (yes)

Recorded call for CCCCCCCCCC(OCC)OCC ?
0 (no)

Recorded call for C=CCNC1=C(NC(C)=O)C(=O)c2ccccc2C1=O ?
0 (no)

Recorded call for CCOC(=O)c1[nH]cc(C(=O)O)c1C ?
0 (no)

Recorded call for O=c1ccc2ccccc2cc1 ?
0 (no)

Recorded call for COC(=O)C1(CC(=O)c2c(C)[nH]c3ccccc23)NC(=S)NC(=O)C1C#N (stereo not given) ?
0 (no)

Recorded call for CCOC(=O)c1c(-c2ccc([N+](=O)[O-])cc2)c(C=O)n(-c2ccccc2)c1C ?
0 (no)

Recorded call for C=CCOc1cc2c(cc1C(CC)c1ccc(OCc3ccccc3)cc1)OCO2 (stereo not given) ?
0 (no)

Recorded call for Cc1[nH]n(-c2ccc(Cl)cc2)c(=O)c1N=Nc1cccc(C(F)(F)F)c1 ?
0 (no)

Recorded call for CC(=C(C#N)C#N)c1csc2ccccc12 ?
0 (no)

Where these numbers come from: PubChem BioAssay (NCI)
